tested on: S. epidermidis Step_f50654 Pen S; experiment: Antibacterial activity in vitro, MIC by broth microdilution; format: cell-based; settings: Table 5, Strain ID C: S. epidermidis Step_f50654; unit assumed
endpoint label: MIC (µg/mL)
Report the figure in µg/mL without appending any unit label.

# example entries with known answers
compound="CC[C@H]1OC(=O)[C@H](C)C(=O)[C@H](C)[C@@H](OC2O[C@H](C)C[C@H](N(C)C)[C@H]2O)[C@@](C)(OC)C[C@@H](C)C(=O)[C@H](C)[C@H]2N(CCCCc3ccc4ccccc4n3)C(=O)O[C@]12CC (stereo partly shown) [Example 18]" endpoint_label=MIC reading=0.78
compound="CC[C@H]1OC(=O)[C@H](C)C(=O)[C@H](C)[C@@H](OC2O[C@H](C)C[C@H](N(C)C)[C@H]2O)[C@@](C)(OC)C[C@@H](C)C(=O)[C@H](C)[C@H]2N(CCCCn3cnc4cccnc43)C(=O)O[C@]12CC (stereo partly shown) [Example 14]" endpoint_label=MIC reading=0.2
compound="CC[C@H]1OC(=O)[C@@](C)(F)C(=O)[C@H](C)[C@@H](O[C@@H]2O[C@H](C)C[C@H](N(C)C)[C@H]2O)[C@@](C)(OC)C[C@@H](C)C(=O)[C@H](C)[C@H]2N(CCCC(C)(C)n3cnc4cccnc43)C(=O)O[C@]12CC [Example 40]" endpoint_label=MIC reading=0.2

get_value(item= CC[C@H]1OC(=O)[C@H](C)C(=O)[C@H](C)[C@@H](OC2O[C@H](C)C[C@H](N(C)C)[C@H]2O)[C@@](C)(OC)C[C@@H](C)C(=O)[C@H](C)[C@H]2N(CCCCn3cnc(-c4cnccn4)c3)C(=O)O[C@]12CC (stereo partly shown) [Example 26] , readout=MIC) returns 0.2

* * *

test system: S. pneumoniae Stpn_297-749 Pen R; assay: Antibacterial activity in vitro, MIC by broth microdilution; assay type: cell-based, Streptococcus pneumoniae; conditions: Table 3, Strain ID F: S. pneumoniae Stpn_297-749 Pen R
endpoint label: MIC

# example entries with known answers
molecule=CC[C@H]1OC(=O)[C@H](C)C(=O)[C@H](C)[C@@H](O[C@@H]2O[C@H](C)C[C@H](N(C)C)[C@H]2O)[C@@](C)(OC)C[C@@H](C)C(=O)[C@H](C)[C@@H]2[C@@H]1OC(=O)N2CCCCc1ccc2ccccc2n1 study_target="S. pneumoniae Stpn_297-749 Pen R" reading=≦0.05
molecule="CC[C@H]1OC(=O)[C@H](C)C(=O)[C@H](C)[C@@H](O[C@@H]2O[C@H](C)C[C@H](N(C)C)[C@H]2O)[C@@](C)(OC)C[C@@H](C)C(=O)[C@H](C)[C@@H]2[C@@H]1OC(=O)N2CCCCn1cnc(-c2ccccc2)c1 [Compound 6221]" study_target="S. pneumoniae Stpn_297-749 Pen R" reading=≦0.05
molecule="CC[C@H]1OC(=O)[C@H](C)C(=O)[C@H](C)[C@@H](O[C@@H]2O[C@H](C)C[C@H](N(C)C)[C@H]2O)[C@@](C)(OC)C[C@@H](C)C(=O)[C@H](C)[C@@H]2[C@@H]1OC(=O)N2CCCCc1ccnc2ccccc12 [Compound 4711]" study_target="S. pneumoniae Stpn_297-749 Pen R" reading=≦0.5
molecule=CC[C@H]1OC(=O)[C@H](C)C(=O)[C@H](C)[C@@H](O[C@@H]2O[C@H](C)C[C@H](N(C)C)[C@H]2O)[C@@](C)(OC)C[C@@H](C)C(=O)[C@H](C)[C@H]2N(CCCCn3cnc(-c4cccnc4)c3)C(=O)O[C@]12CC study_target="S. pneumoniae Stpn_297-749 Pen R" reading=≦0.05

get_value(item= `CC[C@H]1OC(=O)[C@H](C)C(=O)[C@H](C)[C@@H](O[C@@H]2O[C@H](C)C[C@H](N(C)C)[C@H]2O)[C@@](C)(OC)C[C@@H](C)C(=O)[C@H](C)[C@@H]2[C@@H]1OC(=O)N2CCCn1cnc2cccnc21` , readout=MIC) returns ≦0.5

* * *

tested on: S. pneumoniae Stpn_Mef S 3427; assay: Antibacterial activity in vitro, MIC by broth microdilution; format: cell-based, Streptococcus pneumoniae; settings: Table 3, Strain ID K: S. pneumoniae Stpn_Mef S 3427
endpoint label: MIC

# example entries with known answers
compound="CC[C@H]1OC(=O)[C@H](C)C(=O)[C@H](C)[C@@H](O[C@@H]2O[C@H](C)C[C@H](N(C)C)[C@H]2O)[C@@](C)(OC)C[C@@H](C)C(=O)[C@H](C)[C@@H]2[C@@H]1OC(=O)N2CCCCc1ccnc2ccccc12 [Compound 6220]" study_target="S. pneumoniae Stpn_Mef S 3427" reading=≦0.5
compound="CC[C@H]1OC(=O)[C@H](C)C(=O)[C@H](C)[C@@H](O[C@@H]2O[C@H](C)C[C@H](N(C)C)[C@H]2O)[C@@](C)(OC)C[C@@H](C)C(=O)[C@H](C)[C@@H]2[C@@H]1OC(=O)N2CCCCn1cnc(-c2ccccc2)c1 [Compound 6221]" study_target="S. pneumoniae Stpn_Mef S 3427" reading=≦0.05
compound="CC[C@H]1OC(=O)[C@H](C)C(=O)[C@H](C)[C@@H](O[C@@H]2O[C@H](C)C[C@H](N(C)C)[C@H]2O)[C@@](C)(OC)C[C@@H](C)C(=O)[C@H](C)[C@H]2N(CCCCn3cnc(-c4ccccc4)c3)C(=O)O[C@]12CC [Compound 7281]" study_target="S. pneumoniae Stpn_Mef S 3427" reading=≦0.05
compound="CC[C@H]1OC(=O)[C@H](C)C(=O)[C@H](C)[C@@H](O[C@@H]2O[C@H](C)C[C@H](N(C)C)[C@H]2O)[C@@](C)(OC)C[C@@H](C)C(=O)[C@H](C)[C@H]2N(CCCCc3ccnc4ccccc34)C(=O)O[C@]12CC [Compound 7283]" study_target="S. pneumoniae Stpn_Mef S 3427" reading=≦0.05
compound="CC[C@H]1OC(=O)[C@H](C)C(=O)[C@H](C)[C@@H](O[C@@H]2O[C@H](C)C[C@H](N(C)C)[C@H]2O)[C@@](C)(OC)C[C@@H](C)C(=O)[C@H](C)[C@@H]2[C@@H]1OC(=O)N2CCCCc1ccc2ccccc2n1 [Compound 5960]" study_target="S. pneumoniae Stpn_Mef S 3427" reading=≦0.05

get_value(item= CC[C@H]1OC(=O)[C@H](C)C(=O)[C@H](C)[C@@H](O[C@@H]2O[C@H](C)C[C@H](N(C)C)[C@H]2O)[C@@](C)(OC)C[C@@H](C)C(=O)[C@H](C)[C@@H]2[C@@H]1OC(=O)N2CCCCn1ccc2ccccc21 [Compound 4717] , readout=MIC) returns ≦0.05

get_value(item= CC[C@H]1OC(=O)[C@H](C)C(=O)[C@H](C)[C@@H](O[C@@H]2O[C@H](C)C[C@H](N(C)C)[C@H]2O)[C@@](C)(OC)C[C@@H](C)C(=O)[C@H](C)[C@@H]2[C@@H]1OC(=O)N2CCCCn1cnc(-c2ccccc2)c1 [Compound 4710] , readout=MIC) returns ≦0.5

get_value(item= CC[C@H]1OC(=O)[C@H](C)C(=O)[C@H](C)[C@@H](O[C@@H]2O[C@H](C)C[C@H](N(C)C)[C@H]2O)[C@@](C)(OC)C[C@@H](C)C(=O)[C@H](C)[C@@H]2[C@@H]1OC(=O)N2CCCCc1ccnc2ccccc12 [Compound 4711] , readout=MIC) returns ≦0.5

* * *

Each item that follows carries a reported MIC.
test system: S. epidermidis Step_f50654 Pen S; assay: Antibacterial activity in vitro, MIC by broth microdilution; assay type: cell-based; conditions: Table 5, Strain ID C: S. epidermidis Step_f50654; unit assumed
Report the figure in µg/mL without appending any unit label.

# example entries with known answers
compound="CC[C@H]1OC(=O)[C@@](C)(F)C(=O)[C@H](C)[C@@H](OC2O[C@H](C)C[C@H](N(C)C)[C@H]2O)[C@@](C)(OC)C[C@@H](C)C(=O)[C@H](C)[C@H]2N(CCCCc3ccc4ccccc4n3)C(=O)O[C@]12CC (stereo partly shown)" reading=0.4
compound="C=C[C@]12OC(=O)N(CCCCn3cnc(-c4cccnc4)c3)[C@@H]1[C@@H](C)C(=O)[C@H](C)C[C@](C)(OC)[C@H](OC1O[C@H](C)C[C@H](N(C)C)[C@H]1O)[C@@H](C)C(=O)[C@](C)(F)C(=O)O[C@@H]2CC (stereo partly shown)" reading=0.2
compound="CC[C@H]1OC(=O)[C@@](C)(F)C(=O)[C@H](C)[C@@H](OC2O[C@H](C)C[C@H](N(C)C)[C@H]2O)[C@@](C)(OC)C[C@@H](C)C(=O)[C@H](C)[C@H]2N(CCCC(C)(C)n3cnc(-c4cccnc4)c3)C(=O)O[C@]12CC (stereo partly shown)" reading=0.4

get_value(item= `C/C=C/[C@]12OC(=O)N(CCCCn3cnc(-c4cccnc4)c3)[C@@H]1[C@@H](C)C(=O)[C@H](C)C[C@](C)(OC)[C@H](O[C@@H]1O[C@H](C)C[C@H](N(C)C)[C@H]1O)[C@@H](C)C(=O)[C@@H](C)C(=O)O[C@@H]2CC` , readout=MIC) returns 3.13

// provenance: patent US6756359B2
